log10 IFN-α by entry:
tested on: human PBMCs; test: Human PBMC cytokine response assay (IFN-γ and IFN-α in cell-free medium by ELISA), with or without cPLGA; type: cell-based; conditions: Example 58; 0.8 ug/ml; donor 4
Strand notation (5' to 3'): a small letter for the sugar, then the base; units joined by * are phosphorothioate-linked, units joined directly phosphodiester-linked; [ ] holds rarer units or linkages, { } end groups; capitals alone tell only the bases. d = 2'-deoxy (DNA)
In plain terms, each number is the log10 of measured IFN-α in pg/mL.

Sample answers from the record:
substance | assay.value
5′-TCGAACGTTCGA-3′ (SEQ ID NO: 155) (listed as DNA, chemistry not fully specified) [Compound P-17, reference compound] | 2.46
(5′-TCGAACGTTCGA-3′ (SEQ ID NO: 155)-HEG)3-trebler-HEG-5′-T-3′ (three copies HEG-trebler branched, HEG-T, chemistry not fully specified) [Compound C-175] | 3.46
(5′-TAGTCAT-3′-HEG)2-glycerol-HEG-5′-AACCTTC-3′ [Compound M-3, reference compound] | 1.72
(5′-TCGACGT-3′-HEG)2-glycerol-HEG-5′-TCGACGT-3′ [Compound C-101] | 1.72
5′-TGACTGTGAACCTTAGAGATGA-3′ (SEQ ID NO: 3) (dT*dG*dA*dC*dT*dG*dT*dG*dA*dA*dC*dC*dT*dT*dA*dG*dA*dG*dA*dT*dG*dA) [Compound P-7, negative control, reference compound] | 1.72

Value (log10 IFN-α, human PBMCs) for record (5′-TCGAACGTTCGA-3′ (SEQ ID NO: 155)-HEG)2-glycerol-HEG-3′-AGCTTGCAAGCT-5′ (SEQ ID NO: 155) (DNA, all phosphorothioate, methylation of C not given here; Three DNA copies joined by HEG spacers and glycerol branching, one copy inverted) [Compound C-174] = 3.24

Value (log10 IFN-α, human PBMCs) for record (5′-TCGAACGTTCGA-3′ (SEQ ID NO: 155)-HEG)2-glycerol-HEG-5′-TCGAACGTTCGA-3′ (SEQ ID NO: 155) (three copies via HEG-glycerol branching, chemistry not fully specified) [Compound C-173] = 3.41

// data source = patent US9028845B2
